All values here come from patent US6107316A.

Test: cytotoxicity towards HFF host cells (Cell Titer 96)
Conditions: human, % Inhibition of host cell growth (values in parenthesis), 25.0 μg/ml, 72 hours
Metric: inhibition at 72 h (%)

CCC(C)(NC(=O)c1cc(Cl)c(C)c(Cl)c1)C(=O)CCl (centres unmarked) [Compound 10]
4.8
CCC(C)(NC(=O)c1cc(F)c(F)c(F)c1)C(=O)CCl (centres unmarked) [Compound 11]
50.1

###

Assay: cytotoxicity towards L929 host cells (Cell Titer 96)
Settings: mouse, % Inhibition of host cell growth (values in parenthesis), L929, 5.0 μg/ml, 48 hours
Protocol: Cytotoxicity of the test compounds towards host cells was determined using the Cell Titer 96™ it (Promega Corporation, Madison, Wis.) as follows. Cells were seeded at a concentration of 5×10^3 cells per well containing 100 μl of medium in 96-well flat-bottom microtiter plates and incubated at 37° C. in a 5% carbon dioxide environment for 4 hours. […] The plates were then read spectrophotometrically in a plate reader at a wavelength of 570 nm. […]
Below, each entry is listed with its recorded inhibition at 48 h.
Metric: inhibition at 48 h (%)

CCC(C)(NC(=O)c1cc(F)c(F)c(F)c1)C(=O)CCl (centres unmarked) [Compound 11]
5.5
CCC(C)(NC(=O)c1cc(Cl)c(N)c(Cl)c1)C(=O)CCl (centres unmarked) [Compound 1]
61.8
CCC(C)(NC(=O)c1cc(Cl)cc(Cl)c1)C(=O)CCl (centres unmarked) [Compound 5]
66.8
CCC(C)(NC(=O)c1cc(Cl)c(F)c(Cl)c1)C(=O)CCl (centres unmarked) [Compound 9]
65.2
CCC(C)(NC(=O)c1cc(F)cc(F)c1)C(=O)CCl (centres unmarked) [Compound 12]
66.8
CCC(C)(NC(=O)c1cc(Br)c(N)c(Br)c1)C(=O)CCl (centres unmarked) [Compound 14]
58.7
CCC(C)(NC(=O)c1cc(Cl)c(C)c(Cl)c1)C(=O)CCl (centres unmarked) [Compound 10]
0
O=C1C(O)=C([C@H]2CC[C@H](c3ccc(Cl)cc3)CC2)C(=O)c2ccccc21 [Atovaquone, reference compound]
54.1

###

Experiment: cytotoxicity towards HFF host cells (Cell Titer 96)
Settings: human, % Inhibition of host cell growth (values in parenthesis), 0.05 μg/ml, 48 hours
Method: Cytotoxicity of the test compounds towards host cells was determined using the Cell Titer 96™ it (Promega Corporation, Madison, Wis.) as follows. Cells were seeded at a concentration of 5×10^3 cells per well containing 100 μl of medium in 96-well flat-bottom microtiter plates and incubated at 37° C. in a 5% carbon dioxide environment for 4 hours. […] The plates were then read spectrophotometrically in a plate reader at a wavelength of 570 nm. […]
Metric: inhibition at 48 h (%)

O=C1C(O)=C([C@H]2CC[C@H](c3ccc(Cl)cc3)CC2)C(=O)c2ccccc21 [Atovaquone, reference compound]
0

###

Assay: cytotoxicity towards HFF host cells (Cell Titer 96)
Settings: human, % Inhibition of host cell growth (values in parenthesis), 0.05 μg/ml, 24 hours
Metric: inhibition at 24 h (%)

O=C1C(O)=C([C@H]2CC[C@H](c3ccc(Cl)cc3)CC2)C(=O)c2ccccc21 [Atovaquone, reference compound]
0

###

Experiment: toxicity towards MDBKF5D2 host cells (MTS)
Settings: bovine, mdbkf5d2 cells, Cytotoxicity (percent toxicity), 100 μM
Metric: cytotoxicity at 48 h, 100 µM (%)

CCC(C)(NC(=O)c1cc(F)cc(F)c1)C(=O)CCl (stereo not drawn)
9.9
CCC(C)(NC(=O)c1cc(Cl)c(N)c(Cl)c1)C(=O)CCl (stereo not drawn)
35.7
CCC(C)(NC(=O)c1cc(F)c(F)c(F)c1)C(=O)CCl (stereo not drawn)
2.7
CCC(C)(NC(=O)c1cc(Br)c(N)c(Br)c1)C(=O)CCl (stereo not drawn)
22.3
CCC(C)(NC(=O)c1cc(Cl)c(F)c(Cl)c1)C(=O)CCl (stereo not drawn)
81.4
CCC(C)(NC(=O)c1cc(Cl)cc(Cl)c1)C(=O)CCl (stereo not drawn)
72.6

###

Test system: Toxoplasma gondii
Assay: growth inhibition of T. gondii in L929 host cells ([3H]-uracil incorporation)
Assay type: cell-based
Conditions: Toxoplasma gondii, L929, 24 h, L929 host cells, 5.0 μg/ml, 24 hours; read-out: % Inhibition
Below, each entry is listed with its recorded inhibition at 5 µg/mL.
Metric: inhibition at 5 µg/mL (%)

CCC(C)(NC(=O)c1cc(Cl)c(N)c(Cl)c1)C(=O)CCl (stereo not drawn) [Compound 1]
10.8
CCC(C)(NC(=O)c1cc(Cl)c(F)c(Cl)c1)C(=O)CCl (stereo not drawn) [Compound 9]
28.2
CCC(C)(NC(=O)c1cc(Br)c(N)c(Br)c1)C(=O)CCl (stereo not drawn) [Compound 14]
6.9
CCC(C)(NC(=O)c1cc(F)c(F)c(F)c1)C(=O)CCl (stereo not drawn) [Compound 11]
21.5
CCC(C)(NC(=O)c1cc(F)cc(F)c1)C(=O)CCl (stereo not drawn) [Compound 12]
2.8
O=C1C(O)=C([C@H]2CC[C@H](c3ccc(Cl)cc3)CC2)C(=O)c2ccccc21 [Atovaquone, reference compound]
80.3

###

Assay: cytotoxicity towards HFF host cells (Cell Titer 96)
Conditions: human, % Inhibition of host cell growth (values in parenthesis), 25.0 μg/ml, 48 hours
Metric: inhibition at 48 h (%)

CCC(C)(NC(=O)c1cc(Cl)c(C)c(Cl)c1)C(=O)CCl (centres unmarked) [Compound 10]
9.3
CCC(C)(NC(=O)c1cc(F)c(F)c(F)c1)C(=O)CCl (centres unmarked) [Compound 11]
20

###

Experiment: cytotoxicity towards HFF host cells (Cell Titer 96)
Conditions: human, % Inhibition of host cell growth (values in parenthesis), 0.5 μg/ml, 24 hours
Below, each entry is listed with its recorded inhibition at 24 h.
Metric: inhibition at 24 h (%)

CCC(C)(NC(=O)c1cc(Cl)c(N)c(Cl)c1)C(=O)CCl (stereo not drawn) [Compound 1]
1.6
O=C1C(O)=C([C@H]2CC[C@H](c3ccc(Cl)cc3)CC2)C(=O)c2ccccc21 [Atovaquone, reference compound]
0
CCC(C)(NC(=O)c1cc(Cl)c(C)c(Cl)c1)C(=O)CCl (stereo not drawn) [Compound 10]
0
CCC(C)(NC(=O)c1cc(F)cc(F)c1)C(=O)CCl (stereo not drawn) [Compound 12]
4.6
CCC(C)(NC(=O)c1cc(Br)c(N)c(Br)c1)C(=O)CCl (stereo not drawn) [Compound 14]
4.1
CCC(C)(NC(=O)c1cc(Cl)c(F)c(Cl)c1)C(=O)CCl (stereo not drawn) [Compound 9]
1.1

###

Below, each entry is listed with its recorded inhibition at 24 h.
Test: cytotoxicity towards HFF host cells (Cell Titer 96)
Conditions: human, % Inhibition of host cell growth (values in parenthesis), 25.0 μg/ml, 24 hours
Metric: inhibition at 24 h (%)

CCC(C)(NC(=O)c1cc(Cl)c(C)c(Cl)c1)C(=O)CCl (centres unmarked)
6.7
CCC(C)(NC(=O)c1cc(F)c(F)c(F)c1)C(=O)CCl (centres unmarked)
17.5

###

Tested on: Cryptosporidium parvum
Assay: growth inhibitory activity against C. parvum in host MDBKF5D2 cells (immunofluorescence)
Format: cell-based
Conditions: Cryptosporidium parvum, 48 h, 100 μM
Metric: inhibition at 100 µM (%)

CCC(C)(NC(=O)c1cc(F)cc(F)c1)C(=O)CCl (centres unmarked) [Compound 12]
88.9
CCC(C)(NC(=O)c1cc(F)c(F)c(F)c1)C(=O)CCl (centres unmarked) [Compound 11]
86.2
CCC(C)(NC(=O)c1cc(Cl)c(N)c(Cl)c1)C(=O)CCl (centres unmarked) [Compound 1]
81.1
CCC(C)(NC(=O)c1cc(Cl)cc(Cl)c1)C(=O)CCl (centres unmarked) [Compound 13]
87.5
CCC(C)(NC(=O)c1cc(Br)c(N)c(Br)c1)C(=O)CCl (centres unmarked) [Compound 14]
86.7

###

Experiment: cytotoxicity towards L929 host cells (Cell Titer 96)
Conditions: mouse, % Inhibition of host cell growth (values in parenthesis), L929, 25.0 μg/ml, 72 hours
Metric: inhibition at 72 h

CCC(C)(NC(=O)c1cc(F)c(F)c(F)c1)C(=O)CCl (centres unmarked) [Compound 11]
89.6%
CCC(C)(NC(=O)c1cc(Cl)c(C)c(Cl)c1)C(=O)CCl (centres unmarked) [Compound 10]
7.6%

###

Assay: cytotoxicity towards L929 host cells (Cell Titer 96)
Settings: mouse, % Inhibition of host cell growth (values in parenthesis), L929, 0.5 μg/ml, 72 hours
Experimental: Cytotoxicity of the test compounds towards host cells was determined using the Cell Titer 96™ it (Promega Corporation, Madison, Wis.) as follows. Cells were seeded at a concentration of 5×10^3 cells per well containing 100 μl of medium in 96-well flat-bottom microtiter plates and incubated at 37° C. in a 5% carbon dioxide environment for 4 hours. […] The plates were then read spectrophotometrically in a plate reader at a wavelength of 570 nm. […]
Below, each entry is listed with its recorded inhibition at 72 h.
Metric: inhibition at 72 h (%)

CCC(C)(NC(=O)c1cc(F)cc(F)c1)C(=O)CCl (stereo not shown)
0
CCC(C)(NC(=O)c1cc(Cl)c(N)c(Cl)c1)C(=O)CCl (stereo not shown)
31.3
CCC(C)(NC(=O)c1cc(Br)c(N)c(Br)c1)C(=O)CCl (stereo not shown)
0
CCC(C)(NC(=O)c1cc(Cl)c(C)c(Cl)c1)C(=O)CCl (stereo not shown)
2.2
CCC(C)(NC(=O)c1cc(Cl)c(F)c(Cl)c1)C(=O)CCl (stereo not shown)
8.5
CCC(C)(NC(=O)c1cc(Cl)cc(Cl)c1)C(=O)CCl (stereo not shown)
0
O=C1C(O)=C([C@H]2CC[C@H](c3ccc(Cl)cc3)CC2)C(=O)c2ccccc21 [Atovaquone, reference compound]
44.4
